- assay-name: chemical genetic growth profiling, strain panel (AID 1159580);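 note: tested at 20 µM; growth read once vehicle control cultures reached saturation at 30 °C; 1 = growth at the plate median or of vehicle wells; lower values mean less growth of the strain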
- experimental-setup: S. cerevisiae deletion strains, growth OD, locus YLR039C, strain RIC1, active compounds read low
Screen size: about 5,500 compounds; about 2,000 (36%) were called active. Inconclusive results (about 18%) are left out. This is one part of the list.
Mark class 1 only for normalized growth values smaller than 0.8; exact matches and larger values are class 0.

compound	group-label
COC(=O)CSc1nc2ccc(Cl)cc2s1	class 0
Brc1ccc(-c2ccn[nH]2)s1	class 1
CC(CC(O)C1OC1(C)C)[C@@H]1CCC2(C)C3=CCC4C(C)(C)C(=O)CCC4(C)C3CC[C@@]12C (stereo partly specified)	class 0
Cn1c2c(c3c1CCCC3)CCCC2	class 0
CC(=O)OC1CN2CCC1CC2 (stereo unspecified)	class 0
CC1(C)C(=O)C=C[C@@]2(C)C1C=C[C@]1(C)C2CC[C@@]2(C)[C@H](c3ccoc3)OC(=O)C3OC321 (stereo partly specified)	class 1

====

Listed here are compounds together with their documented normalized growth.
- assay-name: chemical genetic growth profiling, strain panel (AID 1159580);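 note: tested at 20 µM; growth read once vehicle control cultures reached saturation at 30 °C; 1 = growth at the plate median or of vehicle wells; lower values mean less growth of the strain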
- experimental-setup: S. cerevisiae deletion strains, growth OD, locus YJR075W, strain HOC1, active compounds read low
Hit rate of the full screen: of about 5,500 compounds, about 2,000 (36%) were called active. Not shown: some 18% with an inconclusive outcome. The list shows a part of the results.
observed-property: normalized growth

compound	observed-property	reported
CCOC(=O)/C(C#N)=C/c1ccc(Br)cc1	normalized growth	0.828
CC(COc1ccc(/C=C/c2ccccc2)cc1)[N+](C)(C)C (configuration not stated)	normalized growth	0.878
CC(=O)OC1CN2CCC1CC2 (configuration not stated)	normalized growth	1.02
N#C/C(=C\c1ccc(O)c(O)c1)C(=O)NCc1ccccc1	normalized growth	0.992
CCCC(C)(COC(N)=O)COC(=O)NC(C)C (configuration not stated)	normalized growth	0.997
CSc1cccc(NC(=S)N=CN(C)C)c1	normalized growth	1.05
Cc1cc(I)c(C)cc1I	normalized growth	0.976

====

- assay-name: chemical genetic growth profiling, strain panel (AID 1159580);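 note: tested at 20 µM; growth read once vehicle control cultures reached saturation at 30 °C; 1 = growth at the plate median or of vehicle wells; lower values mean less growth of the strain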
- experimental-setup: S. cerevisiae deletion strains, growth OD, locus YML124C, strain tub3, active compounds read low
Out of some 5,500 compounds screened, about 2,000 (36%) were called active. Inconclusive results (about 18%) are left out. Some of the results follow.
Listed here are compounds together with their documented normalized growth.

compound	normalized growth
CCC(c1ccc(O)cc1)C(CC)c1ccc(O)cc1 (stereo not given)	1.01
COc1ccc(Cl)cc1C(=O)NCCc1ccc(S(=O)(=O)NC(=O)NC2CCCCC2)cc1	1
CN[C@@H]1C(O)[C@@H](O[C@@H]2[C@@H](O)[C@H](O[C@H]3OC(CN)=CC[C@H]3N)[C@@H](N)C[C@H]2N)OC[C@]1(C)O (stereo not given in full)	0.991
COC(=O)C[C@H]1C(C)(C)C2(Cl)O[C@@]34CC2C(=O)[C@]1(C)C3CC[C@]1(C)C4=CC(=O)O[C@H]1c1ccoc1 (stereo not given in full)	0.992
CNC(=O)Oc1cccc2c1OC(C)(C)O2	0.998
COc1cc2occc2c2oc(=O)ccc12	0.982
CCC(=O)c1c(O)cc(O)cc1O	0.978
COc1cc(OC)c2ccc(=O)oc2c1	1.01
Cc1cc(OC(=O)c2c(C)cc(O)cc2O)cc(O)c1C(=O)O	1
CC1=CC(=O)C2=C(C)CC[C@@H]3[C@H](OC(=O)[C@H]3C)[C@@H]12	0.989
